All values here come from patent US20250163057A1.

Molecular target: DCN1 (DCUND1) protein PONY domain (Homo sapiens (Human))
Test: TR-FRET assay, DCN1 binding with FAM-labeled probe
Details: read-out: TR FRET IC50 1 hr; 1 hr after treatment with compound
Method: A TR-FRET assay was performed to evaluate the ability of the compounds to bind the DCN-1 protein. The TR-FRET assay was designed following the Scott et al. protocol (Scott et al., Nat Chem Biol. 2017 August; 13(8): 850-857. Doi:10.1038/nchembio.2386). […] The TR-FRET ratio between Tb-DCN1 and the FAM-labeled probe was measured in a 384-well opti-plate (Perkin Elmer) using a plate reader (BMG) at 1, 5, and 24 hrs after treatment with compound (final DMSO concentration of 0.1%).
parameter measured: IC50

The following compounds have reported results that may help.
1. CCN1C(=O)[C@@H](NC(=O)c2cccc(C(F)(F)F)c2)[C@@H](c2ccc(F)cc2)c2c(C(=O)N3CC(F)(F)C[C@H]3C#N)nn(C3CCOCC3)c21	≤ 0.2 µM
2. CCN1C(=O)[C@@H](NC(=O)c2cccc(C(F)(F)F)c2)[C@@H](C2CC2)c2c(C(=O)N(C)[C@@H](C#N)CCN(C)C)nn(C3CCOCC3)c21	≤ 0.2 µM
3. C=C(CN1CCOCC1)C(=O)Nc1nn(-c2ccccc2)c2c1[C@H](c1ccc(F)cc1)[C@H](NC(=O)c1cccc(C(F)(F)F)c1)C(=O)N2CC (racemic)	≤ 0.2 µM
4. CCN1C(=O)[C@@H](NC(=O)c2cccc(C(F)(F)F)c2)[C@@H](c2ccc(F)cc2)c2c(C(=O)N3CC[C@H]3C#N)nn(-c3ccccc3)c21	≤ 0.2 µM

Problem: # query: IC50 of entry CCN1C(=O)[C@@H](NC(=O)c2cccc(C(F)(F)F)c2)[C@@H](c2ccc(F)cc2)c2c(C(=O)N(C)[C@@H](C#N)CCN3CCC34COC4)nn(-c3ccccc3)c21
Solution: ≤ 0.2 µM

====

molecular target: DCN1 (DCUND1) protein PONY domain (Homo sapiens (Human), UniProt Q96GG9); experiment: TR-FRET assay, DCN1 binding with FAM-labeled probe; details: 24 hr after treatment with compound; read-out: TR FRET IC50 24 hr
Sequence (Q96GG9 60-248): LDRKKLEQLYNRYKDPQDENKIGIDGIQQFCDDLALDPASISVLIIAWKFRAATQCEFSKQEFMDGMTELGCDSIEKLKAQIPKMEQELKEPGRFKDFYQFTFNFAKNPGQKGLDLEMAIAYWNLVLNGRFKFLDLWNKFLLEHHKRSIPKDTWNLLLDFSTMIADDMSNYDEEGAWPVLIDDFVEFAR
pIC50: −log10 of the molar value.
parameter measured: pIC50

Reference set (4 entries):
1) CCN1C(=O)[C@@H](NC(=O)c2cccc(C(F)(F)F)c2)[C@@H](c2ccc(F)cc2)c2c(C(=O)N(C)[C@@H](C#N)CCN3CCOCC3)nn(-c3ccccc3)c21	≥ 6.70
2) CCN1C(=O)[C@@H](NC(=O)c2nccc(C(F)(F)F)n2)[C@H](c2ccc(F)cc2)c2c(CN(C)C(=O)CC#N)nn(-c3ccccc3)c21	5.52 to 6.00
3) CCN1C(=O)[C@@H](NC(=O)c2cccc(C(F)(F)F)c2)[C@@H](C2CC2)c2c(C(=O)N3CS(=O)(=O)C[C@H]3C#N)nn(C3CCOCC3)c21	≥ 6.70
4) CCN1C(=O)[C@@H](NC(=O)C2=NN(c3ccccc3)C(=O)C2)[C@@H](C2CC2)c2c(C(=O)N3[C@H](C#N)C[C@H]4C[C@H]43)nn(C3CCOCC3)c21	5.52 to 6.00

Parameter requested: pIC50. Apply to each item below.
1. CCN1C(=O)[C@@H](NC(=O)c2cccc(C(F)(F)F)c2)[C@@H](C2CC2)c2c(C(=O)N(CC#N)CCCN(C)C)nn(C3CCOCC3)c21
2. CCN1C(=O)[C@@H](NC(=O)c2cccc(C(F)(F)F)c2)[C@@H](c2ccc(F)cc2)c2c(CC/C=C/C(=O)N(C)C)nn(-c3ccccc3)c21 (racemic)
3. CCN1C(=O)[C@@H](NC(=O)c2cccc(C(F)(F)F)c2)[C@@H](c2ccc(F)cc2)c2c(C(=O)N3CCC[C@H]3C#N)nn(-c3cccc(OCCN(C)C4COC4)c3)c21
4. C=C(CN1CC2(CCO2)C1)C(=O)NCc1nn(-c2ccccc2)c2c1[C@H](c1ccc(F)cc1)[C@H](NC(=O)c1cccc(C(F)(F)F)c1)C(=O)N2CC
5. CCN1C(=O)[C@@H](NC(=O)c2cccc(C(F)(F)F)c2)[C@@H](c2ccc(F)cc2)c2c(C(=O)N3CCOC[C@@H]3C#N)nn(-c3ccccc3)c21 (mixture of isomers)

Solution:
≥ 6.70
≥ 6.70
≥ 6.70
≥ 6.70
≥ 6.70

For every item in the list below, what is its measured pIC50?
1. CCN1C(=O)[C@H](NC(=O)c2cccc(C(F)(F)F)c2)[C@H](c2ccc(F)cc2)c2c([C@@H](C)NC#N)nn(C3CCOCC3)c21
2. CCN1C(=O)[C@@H](NC(=O)c2ccn(C(F)(F)F)n2)[C@@H](c2ccc(F)cc2)c2c(C(=O)N3CCOC[C@H]3C#N)nn(-c3ccccc3)c21

Solution:
1. 5.52 to 6.00
2. ≥ 6.70
